Biological target: Xanthine oxidase (Mus musculus, UniProt Q00519)
Construct: The small intestine was homogenized in 4-fold volume of cooled phosphate buffered saline solution (PBS) and then centrifuged; from tissue; host or cells: small intestine of ICR strain mice; dialysed supernatant of a 105,000 g centrifugation
Sequence (Q00519 whole entry): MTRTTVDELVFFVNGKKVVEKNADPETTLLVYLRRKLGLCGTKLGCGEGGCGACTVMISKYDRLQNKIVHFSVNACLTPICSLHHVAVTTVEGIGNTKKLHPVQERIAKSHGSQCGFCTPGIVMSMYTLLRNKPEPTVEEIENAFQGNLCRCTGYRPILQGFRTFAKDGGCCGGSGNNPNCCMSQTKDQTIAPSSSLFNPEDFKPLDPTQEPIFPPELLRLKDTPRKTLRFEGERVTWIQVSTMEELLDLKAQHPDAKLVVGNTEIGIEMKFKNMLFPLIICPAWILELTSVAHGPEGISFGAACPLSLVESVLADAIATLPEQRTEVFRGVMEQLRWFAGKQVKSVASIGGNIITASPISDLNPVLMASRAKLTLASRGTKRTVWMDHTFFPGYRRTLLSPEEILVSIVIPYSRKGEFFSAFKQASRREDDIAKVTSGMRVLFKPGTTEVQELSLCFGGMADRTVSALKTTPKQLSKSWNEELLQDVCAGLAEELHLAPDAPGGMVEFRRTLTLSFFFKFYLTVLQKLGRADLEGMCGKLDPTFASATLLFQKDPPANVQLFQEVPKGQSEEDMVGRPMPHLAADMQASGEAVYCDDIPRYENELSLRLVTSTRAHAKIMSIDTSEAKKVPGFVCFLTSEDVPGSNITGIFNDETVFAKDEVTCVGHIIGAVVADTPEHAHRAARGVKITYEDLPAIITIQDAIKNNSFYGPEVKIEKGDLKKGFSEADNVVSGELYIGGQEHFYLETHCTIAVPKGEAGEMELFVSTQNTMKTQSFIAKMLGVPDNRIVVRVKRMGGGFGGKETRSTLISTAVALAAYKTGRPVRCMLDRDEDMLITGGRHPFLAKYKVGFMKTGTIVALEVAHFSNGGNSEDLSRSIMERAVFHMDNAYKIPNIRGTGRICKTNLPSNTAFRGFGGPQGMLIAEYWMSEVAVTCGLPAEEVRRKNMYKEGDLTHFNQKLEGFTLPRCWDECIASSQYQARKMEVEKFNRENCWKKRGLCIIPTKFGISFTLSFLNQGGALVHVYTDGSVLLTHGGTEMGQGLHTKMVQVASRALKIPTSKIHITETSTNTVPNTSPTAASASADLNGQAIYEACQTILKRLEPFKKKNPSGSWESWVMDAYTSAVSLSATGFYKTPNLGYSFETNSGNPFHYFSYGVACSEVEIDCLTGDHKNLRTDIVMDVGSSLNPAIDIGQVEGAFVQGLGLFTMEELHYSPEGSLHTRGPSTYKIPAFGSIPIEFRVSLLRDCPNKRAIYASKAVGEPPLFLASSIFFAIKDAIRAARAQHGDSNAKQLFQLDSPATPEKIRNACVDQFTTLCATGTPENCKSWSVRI
Experiment: Xanthine oxidase inhibition (in vitro), mouse small intestine xanthine oxidase solution, HPLC of uric acid
Type: biochemical, mouse (ICR strain mice
Conditions: xanthine substrate, incubated at 37° C. for 5 minutes; HPLC UV 292 nm
pIC50: −log10 of the molar value.
RECORDED METRIC: pIC50

O=C(c1ccccc1)c1ccc(-c2cnn3c(O)ncnc23)cc1 : 8.28
Oc1ncnc2c(-c3cc(Cl)c(OCc4ccccc4)c(Cl)c3)cnn12 : 7.28
Cc1cc(-c2cnn3c(O)ncnc23)ccc1Sc1ccccc1 : 7.74
CCc1cccc(NS(=O)(=O)c2ccc(-c3cnn4c(O)ncnc34)cc2)c1 : 9.35
CC(C)(C)c1ccc(NS(=O)(=O)c2ccc(-c3cnn4c(O)ncnc34)cc2)cc1 : 9.12
CCc1ccc(NS(=O)(=O)c2ccc(-c3cnn4c(O)ncnc34)cc2)cc1 : 10.00
Oc1ncnc2c(-c3ccc(Sc4ccccc4)c(Cl)c3)cnn12 : 8.30

I. Cc1cc(-c2cnn3c(O)ncnc23)ccc1[N+](=O)[O-]
II. Cc1cc(-c2cnn3c(O)ncnc23)ccc1[S+]([O-])c1ccccc1 (stereo not drawn)
Between I and II , which one has the lower reported pIC50 value? Write down the label of the entry you select.
I
(I: 7.40, II: 8.62)

* * *

Biological target: Xanthine oxidase (Mus musculus)
Construct: The small intestine was homogenized in 4-fold volume of cooled phosphate buffered saline solution (PBS) and then centrifuged; dialysed supernatant of a 105,000 g centrifugation
Experiment: Xanthine oxidase inhibition (in vitro), mouse small intestine xanthine oxidase solution, HPLC of uric acid
Details: xanthine substrate, incubated at 37° C. for 5 minutes; HPLC UV 292 nm
RECORDED METRIC: IC50 (nM)

A. CCc1cc(-c2cnn3c(O)ncnc23)ccc1SC [Example 39]
B. CSc1ccc(-c2cnn3c(O)ncnc23)cc1SC [Example 41]
// max by IC50 over [ A , B ] Write down the label of the entry you select.
A
(A: 45 nM, B: 24 nM)

1. Oc1ncnc2c(-c3ccc(Br)c(Cl)c3)cnn12 [Example 143]
2. [O-][S+](c1ccccc1)c1ccc(-c2cnn3c(O)ncnc23)cc1 (stereo not drawn) [Example 170]
3. O=S(=O)(Nc1ccc(Cl)cc1)c1ccc(-c2cnn3c(O)ncnc23)cc1 [Example 109]
Put the compounds in ascending order of IC50. The response must list the labels following the requested ordering.
3, 2, 1

* * *

Tested on: uric acid in serum
Assay: Lowering effect of test compound on the level of uric acid in serum (in vivo, oral administration)
Set-up: species or system mouse (normal male ICR mice)
Details: Mus musculus, 4 hours after administration, male ICR mice, suspended in 0.5% CMC-Na, read-out: in vivo Lowering rate (%) of uric acid in serum (in 4 hours)
Catalogue of inhibition in vivo at 5 mg/kg values
Give just the numeric value; % need not be written.

# example entries with known answers
Oc1ncnc2[nH]ncc12 [Allopurinol, 4-hydroxypyrazolo[3,4-d]pyrimidine, reference compound] : 34
CSc1ccc(-c2cnn3c(O)ncnc23)cc1Br [Example 146] : 47
COc1cc(-c2cnn3c(O)ncnc23)ccc1[S+]([O-])c1ccccc1 (centres unmarked) [Example 187] : 63.9
CSc1ccc(-c2cnn3c(O)ncnc23)cc1SC [Example 41] : 60.1
Cc1cc(-c2cnn3c(O)ncnc23)ccc1[S+]([O-])c1ccccc1 (centres unmarked) [Example 171] : 73.6
CSc1cc(F)c(-c2cnn3c(O)ncnc23)cc1C [Example 54] : 65.2
CSc1ccc(-c2cnn3c(O)ncnc23)cc1Cl [Example 43] : 60.6
CSc1ccc(-c2cnn3c(O)ncnc23)cc1C [Example 30] : 47
[O-][S+](c1ccccc1)c1ccc(-c2cnn3c(O)ncnc23)cc1 (centres unmarked) [Example 170] : 57.2
CCSc1ccc(-c2cnn3c(O)ncnc23)cc1C [Example 31] : 63.5

Turning now to a further compound:
Please indicate inhibition in vivo at 5 mg/kg recorded for Cc1cc(-c2cnn3c(O)ncnc23)ccc1Sc1ccccc1 [Example 33]
62

* * *

Molecular target: Xanthine oxidase (Mus musculus, UniProt Q00519)
Construct: The small intestine was homogenized in 4-fold volume of cooled phosphate buffered saline solution (PBS) and then centrifuged; dialysed supernatant of a 105,000 g centrifugation
Assay: Xanthine oxidase inhibition (in vitro), mouse small intestine xanthine oxidase solution, HPLC of uric acid
Settings: xanthine substrate, incubated at 37° C. for 5 minutes; HPLC UV 292 nm
RECORDED METRIC: IC50 (nM)

P. O=S(=O)(NCc1cccs1)c1ccc(-c2cnn3c(O)ncnc23)cc1
Q. Oc1ncnc2c(-c3cc(Cl)c(Cl)c(Cl)c3)cnn12
R. CSc1cc(F)c(-c2cnn3c(O)ncnc23)cc1C
S. CC(C)c1ccc(NS(=O)(=O)c2ccc(-c3cnn4c(O)ncnc34)cc2)cc1
Order the records, beginning with the lowest IC50 and ending with the highest. The response must list the labels following the requested ordering.
S, Q, P, R
